TARGET_OR_SYSTEM: Peptidyl-prolyl cis-trans isomerase FKBP1B (Homo sapiens, UniProt P68106)
Sequence (P68106 whole entry): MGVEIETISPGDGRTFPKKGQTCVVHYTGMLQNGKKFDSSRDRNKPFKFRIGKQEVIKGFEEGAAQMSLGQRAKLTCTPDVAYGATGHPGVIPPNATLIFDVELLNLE
ASSAY_READOUT: Ki (nM)
Field format: number, assumed nM, no unit text.

Inquiry: Please provide the recorded Ki for COC[C@H]1CN(Cc2ccccn2)C(=O)[C@@H]2CCC[C@H]1N2S(=O)(=O)c1cc(Cl)cc(Cl)c1 , tested on Peptidyl-prolyl cis-trans isomerase FKBP1B (Homo sapiens, UniProt P68106).
Reply text: 1.23

---

TARGET_OR_SYSTEM: Peptidyl-prolyl cis-trans isomerase FKBP1A (Homo sapiens, UniProt P62942)
Sequence (P62942 whole entry): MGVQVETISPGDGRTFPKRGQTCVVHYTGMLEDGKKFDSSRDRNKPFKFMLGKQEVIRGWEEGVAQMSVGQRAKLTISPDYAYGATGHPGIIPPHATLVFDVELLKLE
pKi: −log10 of the molar value.
The reader will find reported pKi values listed item by item below.

Inquiry: Give its pKi value. Item: C=C[C@H]1CN(CC(N)=O)C(=O)[C@@H]2CCC[C@H]1N2S(=O)(=O)c1cc(Cl)cc(Cl)c1
Reply text: 7.60 to 8.15

Inquiry: Give its pKi value. Item: C=C[C@@H]1CN(CCN(C)C)C(=O)[C@@H]2CCC[C@H]1N2S(=O)(=O)c1cc(Cl)cc(Cl)c1
Reply text: 7.60 to 8.15

Inquiry: Give its pKi value. Item: C=C[C@H]1CN(CC#N)C(=O)[C@@H]2CCC[C@H]1N2S(=O)(=O)c1cc(Cl)cc(Cl)c1
Reply text: 7.10 to 7.31

Inquiry: Give its pKi value. Item: C=C[C@@H]1CN(CCF)C(=O)[C@@H]2CCC[C@H]1N2S(=O)(=O)c1cc(Cl)cc(Cl)c1
Reply text: 7.10 to 7.31
